B1: FBF1 (parent)
chain: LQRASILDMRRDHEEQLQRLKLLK

variants of: B1; assay: protein stability index of a GFP-peptide fusion (GPS, HEK-293T) (PSI 1-6); higher = more stable; details: c terminus: a fixed tail appended;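 also: lentivirally expressed fusions sorted by FACS into six bins by GFP to DsRed ratio, PSI derived from sequencing read proportions per bin multiplied by bin number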
readout.label: protein stability index
Answers are plain numbers.

R3Q: 3.33
L20G: 4.34
E14K: 3.43
R10E: 3.35

# map each variant to its protein stability index
1. L20F
2. R3E
3. Q16R
4. L22Y
5. Q16V
6. R19S
7. L23T

1. 3.06
2. 4.12
3. 2.77
4. 3.15
5. 3.04
6. 3.48
7. 4.03

# map each variant to its protein stability index
1. L23H
2. S5D
3. I6L
4. L7S
5. L22P
6. I6P
7. K24C
8. Q18T

4.26
3.81
4.02
4.27
4.24
3.94
1.98
3.36

# map each variant to its protein stability index
1. Q18S
2. L1K
3. L23N
4. E15I
5. L1M
6. L1D

[3.19, 3.64, 4.54, 2.37, 3.45, 4.73]

# map each variant to its protein stability index
1. D12W
2. L17C

[2.34, 3.55]

# map each variant to its protein stability index
1. M9T
2. R11D
3. Q2T
4. E14T
5. R11A
6. A4N
7. L20K

3.94
3.69
3.54
2.96
3.23
3.83
4.1

# map each variant to its protein stability index
1. K24T
2. D12Q
3. R11L
4. L22C
5. R10Q

[2.87, 3.71, 3.44, 3.94, 3.51]

# map each variant to its protein stability index
1. S5H
2. L22T
3. L17Y
4. R3S
5. Q2I
6. I6C
7. K24V

2.86
4.35
3.55
3.9
2.49
3.4
1.92
